Task for the reader: assign each of the following molecules its reported inhibition.
Biological target: Trace amine-associated receptor 1 (Homo sapiens) (UniProt Q96RJ0)
Sequence (Q96RJ0 whole entry, looked up): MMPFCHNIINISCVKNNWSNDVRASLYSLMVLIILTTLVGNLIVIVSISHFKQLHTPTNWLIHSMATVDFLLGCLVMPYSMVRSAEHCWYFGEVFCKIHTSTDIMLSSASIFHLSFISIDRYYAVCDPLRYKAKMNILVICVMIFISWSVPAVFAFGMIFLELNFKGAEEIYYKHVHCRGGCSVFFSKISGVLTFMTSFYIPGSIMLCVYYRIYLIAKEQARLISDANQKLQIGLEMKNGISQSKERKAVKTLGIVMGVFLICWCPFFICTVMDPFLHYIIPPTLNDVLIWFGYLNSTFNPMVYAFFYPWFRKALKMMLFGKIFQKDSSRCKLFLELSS
Test: blockers of beta-PEA-driven TAAR1 calcium signal – Fluo-8 calcium fluorescence, CHO RD-HGA16 cells, primary screen (AID 624466);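 further: 0% = DMSO plus EC80 beta-PEA response and 100% = DMSO alone without agonist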
Conditions: CHO RD-HGA16 TAAR1, Fluo-8 calcium fluorescence, antagonist; at 3 µM; active compounds read high
The whole screen tested about 360,000 compounds, of which about 5,400 (1.5%) were called active. The sample as a whole holds a higher share of actives than the screen did.

[in] Requested read-out inhibition, target or system Trace amine-associated receptor 1 (Homo sapiens) (UniProt Q96RJ0), entry `NC(=O)C1CCN(C(=O)c2ccc3c(=O)n(Cc4cccc(Br)c4)c(=S)[nH]c3c2)CC1`
[out] -0.46% (inactive)

[in] O=C(COC(=O)c1ncc(Cl)c(Cl)c1Cl)NC1CCS(=O)(=O)C1 (centres undefined) , same question.
[out] -31.4% (inactive)

[in] // same read-out, input: `C[C@@H](CN1C2=NC[C@@H](Cc3ccccc3)N2C[C@H]1Cc1ccc(O)cc1)NC(=O)CCC1CCCCC1`
[out] -6.17% (inactive)

[in] // repeat for `O=C(Nc1ccc(S(=O)(=O)N2CCCCCC2)cc1)c1c(F)cccc1F` and report
[out] -11.6% (inactive)

[in] For `CCCNC(=O)c1cc2c(c(-c3cccc(-c4ccc(C#N)cc4)c3)n1)[C@@H](CCO)N(C(=O)CC)C2` then?
[out] -3.02% (inactive)

[in] Consider next the molecule `COc1cc(OC)cc(-c2sc3ccc(OC)cc3c2-c2ccc3cc[nH]c3c2)c1` in the same way.
[out] -5.68% (inactive)

[in] Consider next the molecule `COc1ccc2sc(-c3ccc(S(C)(=O)=O)cc3)c(-c3ccc(C(N)=O)cc3)c2c1` in the same way.
[out] 50.5% (active)

[in] For `O=C(Nc1ccccn1)C1CCN(S(=O)(=O)c2ccccc2)CC1` then?
[out] 0.4% (inactive)

[in] What about this molecule? `O=C(NCc1cccnc1)c1ccc2nc([C@@H]3O[C@H](CO)[C@H](O)[C@H](O)[C@H]3O)[nH]c2c1`
[out] 1.36% (inactive)

---

Kindly state inhibition for each of the entries shown.
Molecular target: Trace amine-associated receptor 1 (Homo sapiens) (UniProt Q96RJ0)
Assay: blockers of beta-PEA-driven TAAR1 calcium signal – Fluo-8 calcium fluorescence, CHO RD-HGA16 cells, primary screen (AID 624466);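 further: 0% = DMSO plus EC80 beta-PEA response and 100% = DMSO alone without agonist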
Settings: CHO RD-HGA16 TAAR1, Fluo-8 calcium fluorescence, antagonist; at 3 µM; active compounds read high
Out of some 360,000 compounds screened, about 5,400 (1.5%) were called active. The sample holds actives, similar compounds and a random draw of the others, so the mix is not that of the screen.
I only need the number, in %, no unit after it.

[in] # inhibition lookup, item `COc1ccc(Cl)cc1NC(=O)CCS(=O)(=O)c1cc2c(cc1C)NC(=O)CO2`
[out] 63.3

[in] Input `O=C(NCCCn1ccnc1)c1cc2c(s1)CCCC2`
[out] -26.6

[in] Repeat with O=C(C1CCCN(S(=O)(=O)c2ccccc2)C1)N1CCN(c2ccc(F)cc2)CC1 (centres undefined)
[out] -6.96

[in] Now consider `COc1ccc(NC(=O)CCS(=O)(=O)c2cc3c(cc2Cl)NC(=O)CO3)cc1OC` .
[out] -9.29

---

Target: Trace amine-associated receptor 1 (Homo sapiens) (UniProt Q96RJ0)
Test: blockers of beta-PEA-driven TAAR1 calcium signal – Fluo-8 calcium fluorescence, CHO RD-HGA16 cells, primary screen (AID 624466);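 further: 0% = DMSO plus EC80 beta-PEA response and 100% = DMSO alone without agonist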
Settings: CHO RD-HGA16 TAAR1, Fluo-8 calcium fluorescence, antagonist; at 3 µM; active compounds read high
The whole screen tested about 360,000 compounds, of which about 5,400 (1.5%) were called active. The entries come from a sample that favours actives as a whole.
EXPERIMENTAL_ENDPOINT: inhibition (%)
Express your answer in %, writing the number without its unit.

[in] Quick one: inhibition for COCCNC(=O)C1C(=O)Nc2ccccc2C(=O)N1c1ccc2c(c1)OCCO2 (configuration not stated) ?
[out] -30.9

[in] One more compound: CCC(C(=O)Nc1c(C)cccc1C)n1c(-c2cc(C)cs2)nc2ccccc21 (configuration not stated)
[out] -17.6

[in] Lookup `N#Cc1cccc(NC(=O)COC(=O)c2ccccc2C(=O)c2ccc(Cl)c([N+](=O)[O-])c2)c1`
[out] 71.8

[in] Subsequent entry: `CCC(=O)Oc1cccc(C(=O)Nc2ccc(-c3nnc(-c4ccco4)o3)cc2)c1`
[out] 63.3

[in] And what about the compound `Cc1ccc(SCC(=O)c2cc(C)c(OC(=S)N(C)C)c(C)c2)cc1` ?
[out] 57

[in] Can you handle `C=CC1=CCN(S(=O)(=O)C(C)(C)C)[C@@H]1CCO` next?
[out] -20.8

[in] Now give it for `Cc1ccc(SCC(=O)Nc2ccc3c(c2)OCCO3)cc1` too.
[out] -11.4

[in] Same again, this time with `CN(C)S(=O)(=O)c1ccc(C(=O)NCCN=C2NS(=O)(=O)c3ccccc32)cc1`
[out] -8.85

[in] Field entry: `CCCCNC(=O)CSc1nc2ccc(NC(=O)CSc3nnc(COc4ccccc4C)n3C)cc2s1`
[out] 23.6

[in] Now the compound `S=C(Nc1ccc(Br)cc1Cl)NC1CCN(Cc2ccccc2)CC1`
[out] 0.09

[in] Try this compound too: `COc1ccc(CNC(=O)COC(=O)c2c(C)nn(-c3ccccc3)c2C)cc1OC`
[out] -1.94

[in] Let us now turn to `Nc1nnc(SCC(=O)Nc2ccc3nc(SCC(=O)Nc4ccccc4)sc3c2)s1`
[out] 48.9

---

Molecular target: Trace amine-associated receptor 1 (Homo sapiens)
Assay: blockers of beta-PEA-driven TAAR1 calcium signal – Fluo-8 calcium fluorescence, CHO RD-HGA16 cells, primary screen (AID 624466);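 further: 0% = DMSO plus EC80 beta-PEA response and 100% = DMSO alone without agonist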
Details: CHO RD-HGA16 TAAR1, Fluo-8 calcium fluorescence, antagonist; at 3 µM; active compounds read high
The whole screen tested about 360,000 compounds, of which about 5,400 (1.5%) were called active. Shown is part of a subset that was picked to be rich in actives.
Answer each item with its documented inhibition.
Give the value, in units of %, as a plain number.

[in] Can you share its inhibition? I mean this molecule: `O=C(C(=O)N1CCC(CNC(=O)c2cccnc2Cl)CC1)c1cccs1`
[out] -12.2

[in] Can you check `CSc1ccc(Oc2cccc3c2S(=O)(=O)N([C@H](C)c2ccccc2)C[C@@H](COCc2ccccc2)O3)cc1C` next?
[out] 5.23

[in] // same read-out, input: `O=C(O)c1ccccc1-c1ccccc1C(=O)Nc1nccs1`
[out] -18.3

# credit: PubChem BioAssay AID624466
